# reported viability at 48 h, 5 µM; entries follow
experiment: Toxicity against Saccharomyces cerevisiae 14328 assessed as cell viability at 5 uM after 48 hrs; assay type: organism-based; settings: Saccharomyces cerevisiae 14328 cells, read-out: Activity
MEASUREMENT LABEL: viability at 48 h, 5 µM

[[record]]
chemical_smiles = "NC(=O)c1cccc2c1-c1ccccc1C2"
recorded_measurement = "> 90%"

[[record]]
chemical_smiles = "Cc1cc(C)c(NS(=O)(=O)c2ccc3c(c2)OCCO3)c(C)c1"
recorded_measurement = "89.1%"

[[record]]
chemical_smiles = "Cc1cc(C)c(S(=O)(=O)Nc2ccc3c(c2)OCCO3)c(C)c1"
recorded_measurement = "> 90%"

[[record]]
chemical_smiles = "Cc1cc(C)c(S(=O)(=O)NCCOc2ccccc2)c(C)c1"
recorded_measurement = "> 90%"

[[record]]
chemical_smiles = "CCCCCc1ccc(S(=O)(=O)Nc2ccc3c(c2)OCCO3)cc1"
recorded_measurement = "> 90%"

[[record]]
chemical_smiles = "O=S(=O)(Nc1ccc2c(c1)OCCO2)c1ccc2ccccc2c1"
recorded_measurement = "> 90%"

